# System: N. gonorrhoeae F62 ΔIgtD
# Format: cell-based
# Parameters: key: high: >100% survival in 10% serum; low: >100% survival in 3.3% serum and <10% survival in 10% serum
# applied.conditions: summary Table 1

| compound | Serum resistance |
| --- | --- |
| COC(CO)C(O)C1OC(OP(=O)(O)OCC2OC(n3ccc(N)nc3=O)C(O)C2O)(C(=O)O)CC(O)C1NC(=O)CO (centres unmarked) | low |
| CC(=O)N[C@H]1[C@H]([C@H](O)[C@H](O)CN=[N+]=[N-])OC(OP(=O)(O)OC[C@H]2O[C@@H](n3ccc(N)nc3=O)[C@H](O)[C@@H]2O)(C(=O)O)C[C@@H]1O (some centres unmarked) | none |
| CC(=O)N[C@H]1[C@H]([C@H](O)[C@H](O)COC(C)=O)OC(OP(=O)(O)OC[C@H]2O[C@@H](n3ccc(N)nc3=O)[C@H](O)[C@@H]2O)(C(=O)O)C[C@@H]1O (some centres unmarked) | low^C |

---

# Tested on: N. gonorrhoeae F62 ΔIgtD
# experiment.notes: Flow cytometry for factor H binding to bacteria
# Format: cell-based
# applied.conditions: summary Table 1

| compound | fH binding |
| --- | --- |
| CC(=O)NC1C(O)CC(OP(=O)(O)OCC2OC(n3ccc(N)nc3=O)C(O)C2O)(C(=O)O)OC1C(O)C(O)CO (centres unmarked) [CMP-Neu5Ac, reference compound] | high |
| Nc1ccn([C@@H]2O[C@H](COP(=O)(O)O[C@@]3(C(=O)O)C[C@H](O)[C@@H](NC(=O)CO)[C@H]([C@H](O)[C@H](O)CO)O3)[C@@H](O)[C@H]2O)c(=O)n1 [CMP-Neu5Gc, reference compound] | high |
